- cond: in isobutanol, 318.15 K
measurement.type: solubility (mole fraction)
Numbers only.

### Prompt Need solubility (mole fraction), item `N#Cc1cccc([N+](=O)[O-])c1C#N`
### Response 0.00135

###

- cond: in toluene, 298.15 K
measurement.type: solubility (mole fraction)
Answers are plain numbers.

### Prompt Need solubility (mole fraction), item `N#Cc1cccc([N+](=O)[O-])c1C#N`
### Response 0.0021

###

- cond: in NMP, 288.15 K
measurement.type: solubility (mole fraction)

### Prompt Need solubility (mole fraction), item `N#Cc1cccc([N+](=O)[O-])c1C#N`
### Response 0.104

###

- cond: in ethylene glycol, 318.15 K
measurement.type: solubility (mole fraction)
Numbers only.

### Prompt Need solubility (mole fraction), item `N#Cc1cccc([N+](=O)[O-])c1C#N`
### Response 0.0512

Where do the numbers come from? From BigSolDB 2.1.
